Where do these numbers come from? They come from patent US20230295310A1.

measurement.target: T1, human CD3e/g (human, UniProt P07766 23-126; P09693 23-116)
T1 construct: Bought soluble protein; also called hCD3e/g; human CD3e/g (Acro CDD-C52W4)
T1 sequence (P07766 23-126, chain 1 of 2): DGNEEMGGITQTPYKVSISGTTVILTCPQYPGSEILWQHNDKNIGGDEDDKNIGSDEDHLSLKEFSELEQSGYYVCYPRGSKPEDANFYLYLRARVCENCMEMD
T1 sequence (P09693 23-116, chain 2 of 2): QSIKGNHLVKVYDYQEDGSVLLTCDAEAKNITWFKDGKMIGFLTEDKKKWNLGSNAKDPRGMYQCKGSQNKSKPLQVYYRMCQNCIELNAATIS
test.protocol: SPR (Carterra LSA), mAb on chip
pKd: −log10 of the molar value.
Measured pKd of individual entries

binder	pKd
mAb 297 (antibody, V domains shown, VH and VL only) VH: EVQLLESGGGLVQPGGSLRLSCAASGFTFSSYAMNWVRQAPGKGLEWVSIISGGRRDDITYYAASVKGRFTISRDNSKNTLYLQMNSLRAEDTAVYYCAKMYNYYYYYIDVWGKGTTVTVSS VL: SYELTQPLSVSVALGQTAKITCGGNNIGSKDVHWYQQKPGQAPVLVIYRDSNRPSGIPERFSGSNSGNTATLTISRAQAGDEADYYCQVWDSNTAVFGGGTQLTAL	7.74
mAb 93 (antibody, V domains shown, VH and VL only) VH: QVQLVESGGGVVQPGRSLRLSCAASGFTFRGYGMHWVRQAPGKGLEWVAIIYYNGNNKYYADSVKGRFTISRDNSKNTLYLQMNSLRAEDTAVYYCARGGGYNWFDPWGQGTLVTVSS VL: DIQMTQSPSSLSASVGDRVTITCRASQSISNYLNWYQQEPGKAPKLLIYTASSLQSGVPSRFSGSGSGTAFTLTISSLQPEDFAIYYCQRSSSPPFTFGPGTKLDIK	7.45
mAb 169 (antibody, V domains shown, VH and VL only) VH: EVQLVESGGGLVKTGGSLRLSCVASGFSFKKAWMNWVRQAPGKGLEWVGRIKRNTDGGTADYAAPVKGRFTLSRDDSKKTLFLQMNSLKTEDTAVYYCTTLDSSSYYVGYYYMDVWGKGTTVTVSS VL: DIQMTQSPSSVSASVGDRVIITCRASQDINNWLAWYQQKPGKAPKLLIYTASSLQSGVPSRFSGSGSGTDFILTIGSLQPEDFATYYCQQAHSLPITFGQGTRLEIK	7.90
